I'd be grateful if you could share measured %Inh for these entries.
Tested on: MEK5
Construct: gene MAP2K5
Conditions: concentration: 1 μM, replicates: in singlicate; n = 1
One number for each entry, in %.

Tell me reported %Inh for `COC(=O)c1c(-c2ccccc2)c2cc(Br)ccc2c(=O)n1Cc1ccc(NC(=O)CCC(=O)O)cc1` , tested with MEK5.
10

Missing value: %Inh, MEK5, entry CCS(=O)c1ccc(-c2coc3ccc(-c4nnc(C)o4)cc23)cc1 (stereo not shown) . Fill in?
22

Lab note: need %Inh for `Cc1cccc(-c2nc(Nc3ccc4c(cnn4C)c3)c3ccccc3n2)n1` on MEK5, anyone have it?
0

API: value(readout=%Inh, system=MEK5) for record `COc1cc(OC)cc(-c2cc3cnc(N)nc3nc2NC(=O)NC(C)(C)C)c1`;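 further: KINOMEscan kinase panel screen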
0

# return %Inh for each item in the list
1. COc1cccc(-n2cnc3c(N)ncnc32)c1
2. O=C1NC(=O)C(c2ccccc2)=C1Nc1cccc(O)c1
3. CCC(=O)c1c(-c2ccccc2)c2cc(Cl)ccc2c(=O)n1Cc1cc(S(C)(=O)=O)n(CCC(C)(C)O)n1
4. CCC(=O)c1c(-c2ccccc2)c2cc(Cl)ccc2c(=O)n1Cc1cc(C(=O)NC2CC2)n(C)n1
5. Cc1ccc(Oc2ccc(Nc3ncnc4cc[nH]c34)cc2C)cn1
6. O=C(Nc1n[nH]c2nc(-c3ccccc3)c(Br)cc12)C1CC1

80
29
0
11
99.7
42

List reported %Inh for each of these compounds:
1. COc1cc2ncn(-c3cc(OCc4ccncc4)c(C(N)=O)s3)c2cc1OC
2. CN1C(=O)C(Nc2cc(Cl)c(O)c(Cl)c2)=C(c2ccc(Cl)cc2)C1=O
3. COc1cc2nccc(Nc3cccc(Oc4ccccc4)c3)c2cc1OC.Cl
4. Cc1nnc(-c2ccc3ncn(-c4ccc(S(C)=O)cc4)c3c2)o1 (stereo not shown)
5. Cc1ccc(-c2ccc3c(ccc4sc5c(c43)NC[C@@H](C)N=C5N(C)C)n2)cn1

[88, 25, 99.9, 0, 0]
